Test system: Candida albicans
RUN_DESCRIPTION: Antifungal activity against Candida albicans ATCC 90028
Format: functional
ASSAY_METRIC: MIC (µg/mL)

1) CC1CCN(C(=N)c2ccc3[nH]c(-c4ccc(Oc5ccc(-c6nc7cc(C(=N)N8CCC(C)CC8)ccc7[nH]6)cc5)cc4)nc3c2)CC1    4
2) CC(C)NC(=N)c1ccc2[nH]c(-c3ccc(Oc4ccc(-c5nc6cc(C(=N)NC(C)C)ccc6[nH]5)c(Cl)c4)cc3)nc2c1    2
3) N=C(c1ccc2[nH]c(-c3ccc(Oc4ccc(-c5nc6cc(C(=N)N7CCC(N8CCCC8)CC7)ccc6[nH]5)cc4)cc3)nc2c1)N1CCC(N2CCCC2)CC1    16
4) CC(C)NC(=N)c1ccc2[nH]c(-c3ccc(Oc4ccc(-c5nc6cc(C(=N)NC(C)C)ccc6[nH]5)c(C(F)(F)F)c4)cc3)nc2c1    4
